Measured IC50 (TOP-II (Homo sapiens, UniProt P11388))
Numbers only, in µM.

Some solved cases for reference:
compound="COc1cccc2c1C(=O)c1c(O)c3c(c(O)c1C2=O)C[C@@](O)(C(=O)CO)C[C@@H]3O[C@H]1C[C@H](N)[C@H](O)[C@H](C)O1 [DOX, Doxorubicin, reference compound]" quantity_name=IC50 data_value=34
compound="COc1ccc(-c2nc(Sc3cc(C)nc4ncnn34)[nH]c(=O)c2C#N)cc1OC [Compound 11e]" quantity_name=IC50 data_value=36.7

// next entry
Which IC50 is reported for this compound? Cc1cc(Sc2nnc(-c3ccc([N+](=O)[O-])cc3)o2)n2ncnc2n1 [Compound 13c]
31.6

----------
For each of the compounds below, state its pIC50.
Test system: WI-38 normal fibroblast cell line
Experiment: Cytotoxicity towards normal human cells
Type: cell-based
Conditions: WI-38, read-out: IC50 WI-38
Answers are plain numbers, as −log10 of the molar value.

compound="Cc1cc(Sc2nnc(-c3ccc(Cl)cc3)o2)n2ncnc2n1 [Compound 13d]" quantity_name=pIC50 data_value=4.18
compound="Cc1cc(Sc2nc(-c3ccc(Br)cc3)c(C#N)c(=O)[nH]2)n2ncnc2n1 [Compound 11a]" quantity_name=pIC50 data_value=4.12
compound="COc1ccc(-c2nc(Sc3cc(C)nc4ncnn34)[nH]c(=O)c2C#N)cc1OC [Compound 11e]" quantity_name=pIC50 data_value=4.22

// next entry
Which pIC50 is reported for this compound? Cc1ccc(-c2nc(Sc3cc(C)nc4ncnn34)[nH]c(=O)c2C#N)cc1 [Compound 11c]
4.35

----------
For each of the compounds below, state its pIC50.
Target: aromatase (ARO) (Homo sapiens)
Sequence (P11511 1-503): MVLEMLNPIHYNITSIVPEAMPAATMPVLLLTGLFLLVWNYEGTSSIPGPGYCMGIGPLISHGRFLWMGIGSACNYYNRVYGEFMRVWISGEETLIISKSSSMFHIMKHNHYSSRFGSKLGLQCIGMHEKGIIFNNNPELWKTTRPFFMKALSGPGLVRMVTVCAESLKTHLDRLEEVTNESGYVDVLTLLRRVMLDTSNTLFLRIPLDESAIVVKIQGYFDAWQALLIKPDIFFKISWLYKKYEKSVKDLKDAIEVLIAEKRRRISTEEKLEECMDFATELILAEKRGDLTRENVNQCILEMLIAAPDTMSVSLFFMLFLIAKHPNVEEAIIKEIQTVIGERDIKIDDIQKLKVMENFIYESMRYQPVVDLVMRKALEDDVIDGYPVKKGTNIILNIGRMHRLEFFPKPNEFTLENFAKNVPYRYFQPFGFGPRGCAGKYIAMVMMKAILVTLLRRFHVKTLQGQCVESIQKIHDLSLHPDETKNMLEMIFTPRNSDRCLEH
Answers are plain numbers, as −log10 of the molar value.

compound="Cc1cc(Sc2nnc(-c3ccc([N+](=O)[O-])cc3)o2)n2ncnc2n1 [Compound 13c]" measured_on="aromatase (ARO) (Homo sapiens)" quantity_name=pIC50 data_value=6.81

// next entry
Which pIC50 is reported for this compound? COc1ccc(-c2nc(Sc3cc(C)nc4ncnn34)[nH]c(=O)c2C#N)cc1OC [Compound 11e]
6.42

----------
System: HCT116 (colorectal carcinoma)
Test: MTT cytotoxicity assay, HCT-116
Type: cell-based
Conditions: Homo sapiens, HCT-116, read-out: IC50 HCT-116
Quantity Name: pIC50
Give bare numbers, as −log10 of the molar value.

Some solved cases for reference:
compound="Cc1ccc(-c2nnc(Sc3cc(C)nc4ncnn34)o2)cc1 [Compound 13b]" quantity_name=pIC50 data_value=4.53
compound="COc1ccc(-c2nc(Sc3cc(C)nc4ncnn34)[nH]c(=O)c2C#N)cc1 [Compound 11d]" quantity_name=pIC50 data_value=4.32
compound="Cc1cc(Sc2nc(-c3cccc(Br)c3)c(C#N)c(=O)[nH]2)n2ncnc2n1 [Compound 11f]" quantity_name=pIC50 data_value=4.51

State the recorded pIC50 for every item in the following list.
1. Cc1ccc(-c2nc(Sc3cc(C)nc4ncnn34)[nH]c(=O)c2C#N)cc1 [Compound 11c]
2. Cc1cc(Sc2nnc(NC(=O)Nc3ccccc3)s2)n2ncnc2n1
3. Cc1ccc(NC(=O)Nc2nnc(Sc3cc(C)nc4ncnn34)s2)cc1

1: 4.67; 2: 4.35; 3: 4.23
